Molecular target: ROCK-II(h) (Homo sapiens, UniProt O75116)
Sequence (O75116 whole entry): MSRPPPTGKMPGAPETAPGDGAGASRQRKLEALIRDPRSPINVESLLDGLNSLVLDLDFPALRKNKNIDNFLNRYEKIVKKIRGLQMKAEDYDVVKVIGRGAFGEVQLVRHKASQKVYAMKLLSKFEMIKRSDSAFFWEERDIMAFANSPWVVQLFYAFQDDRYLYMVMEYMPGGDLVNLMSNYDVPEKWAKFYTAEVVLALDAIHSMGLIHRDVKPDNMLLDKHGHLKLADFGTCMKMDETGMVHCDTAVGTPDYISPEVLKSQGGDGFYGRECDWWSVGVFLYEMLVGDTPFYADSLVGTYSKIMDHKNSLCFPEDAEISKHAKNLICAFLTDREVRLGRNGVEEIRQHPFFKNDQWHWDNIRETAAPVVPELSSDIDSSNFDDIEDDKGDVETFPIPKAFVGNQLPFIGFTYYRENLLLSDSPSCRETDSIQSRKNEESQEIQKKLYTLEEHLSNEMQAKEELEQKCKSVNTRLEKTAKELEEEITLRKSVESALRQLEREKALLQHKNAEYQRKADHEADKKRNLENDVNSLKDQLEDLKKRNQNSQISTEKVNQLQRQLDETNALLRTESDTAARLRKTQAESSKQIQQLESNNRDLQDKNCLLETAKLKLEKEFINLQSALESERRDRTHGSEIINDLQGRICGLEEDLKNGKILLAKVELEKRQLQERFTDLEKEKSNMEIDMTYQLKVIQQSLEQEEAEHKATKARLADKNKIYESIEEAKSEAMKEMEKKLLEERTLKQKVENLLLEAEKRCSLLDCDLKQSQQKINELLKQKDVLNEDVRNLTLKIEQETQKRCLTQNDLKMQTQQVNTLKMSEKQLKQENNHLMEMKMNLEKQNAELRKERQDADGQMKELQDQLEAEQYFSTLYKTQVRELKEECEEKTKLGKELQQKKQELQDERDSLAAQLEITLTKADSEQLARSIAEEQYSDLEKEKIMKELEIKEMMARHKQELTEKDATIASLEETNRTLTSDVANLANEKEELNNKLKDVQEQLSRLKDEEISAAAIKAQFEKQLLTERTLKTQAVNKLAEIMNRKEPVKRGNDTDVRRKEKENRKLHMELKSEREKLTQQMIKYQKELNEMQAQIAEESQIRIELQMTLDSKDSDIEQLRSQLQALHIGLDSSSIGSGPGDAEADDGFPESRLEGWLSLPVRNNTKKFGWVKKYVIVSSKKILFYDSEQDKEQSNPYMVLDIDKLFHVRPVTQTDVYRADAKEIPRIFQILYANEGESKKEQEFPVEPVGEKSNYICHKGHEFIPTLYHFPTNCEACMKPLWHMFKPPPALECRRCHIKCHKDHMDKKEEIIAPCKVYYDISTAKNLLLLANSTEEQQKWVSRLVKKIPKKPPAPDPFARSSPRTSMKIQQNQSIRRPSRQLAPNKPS
Experiment: Protein kinase selectivity panel
Format: biochemical
Conditions: 1.0 μM compound, 10 μM ATP
Assignment: determine reported Activity at Protein Kinase Assays (% of control), ROCK-II(h) for the given compounds.

# annotated cases, reported Activity at Protein Kinase Assays (% of control), ROCK-II(h) shown
Short answer please: Activity at Protein Kinase Assays (% of control), ROCK-II(h), ROCK-II(h) (Homo sapiens, UniProt O75116), entry `O=C1NC(=O)C2=C1c1cn(c3ccccc13)CCCc1ccc(c(N3CCCC3)n1)CCCn1cc2c2ccccc21`
104 % of control

Kindly state the measured Activity at Protein Kinase Assays (% of control), ROCK-II(h) obtained for `O=C1NC(=O)C2=C1c1cn(c3ccccc13)CCCc1cc(nc(N3CCCC3)c1)CCCn1cc2c2ccccc21` with ROCK-II(h) (Homo sapiens, UniProt O75116).
107 % of control

Field: Activity at Protein Kinase Assays (% of control), ROCK-II(h) (ROCK-II(h) (Homo sapiens, UniProt O75116)). Entry: `CN(C)c1nc2ccc1CCCCn1cc(c3ccccc31)C1=C(C(=O)NC1=O)c1cn(c3ccccc13)CCC2`
110 % of control

Here is the next item to consider.
Can you look up Activity at Protein Kinase Assays (% of control), ROCK-II(h) on ROCK-II(h) (Homo sapiens, UniProt O75116) for `CN(C)c1cc2cc(n1)CCCn1cc(c3ccccc31)C1=C(C(=O)NC1=O)c1cn(c3ccccc13)CCC2` ?
103 % of control

###

Please go through the items and note down their Activity at Protein Kinase Assays (% of control), SAPK3(h).
Target: SAPK3(h) (Homo sapiens)
Sequence (P53778 1-367): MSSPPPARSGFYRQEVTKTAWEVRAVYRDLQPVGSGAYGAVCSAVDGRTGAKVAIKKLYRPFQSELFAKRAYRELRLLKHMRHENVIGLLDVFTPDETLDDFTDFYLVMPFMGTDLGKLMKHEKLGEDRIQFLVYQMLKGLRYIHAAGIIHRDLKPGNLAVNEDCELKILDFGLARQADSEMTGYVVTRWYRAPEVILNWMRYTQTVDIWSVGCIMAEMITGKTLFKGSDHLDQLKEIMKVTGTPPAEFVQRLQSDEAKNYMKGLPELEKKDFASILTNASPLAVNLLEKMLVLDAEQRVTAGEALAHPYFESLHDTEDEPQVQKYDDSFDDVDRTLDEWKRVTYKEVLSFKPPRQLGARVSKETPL
Experiment: Protein kinase selectivity panel
Assay type: biochemical
Details: 1.0 μM compound, 10 μM ATP

Worked cases, Activity at Protein Kinase Assays (% of control), SAPK3(h) given:
Endpoint output: Activity at Protein Kinase Assays (% of control), SAPK3(h) of `O=C1NC(=O)C2=C1c1cn(c3ccccc13)CCCc1cc(nc(N3CCCC3)c1)CCCn1cc2c2ccccc21` . Value?
103 % of control

Request the reported Activity at Protein Kinase Assays (% of control), SAPK3(h) associated with `CN(C)c1nc2ccc1CCCCn1cc(c3ccccc31)C1=C(C(=O)NC1=O)c1cn(c3ccccc13)CCC2`
78 % of control

Which Activity at Protein Kinase Assays (% of control), SAPK3(h) is listed for `O=C1NC(=O)C2=C1c1cn(c3ccccc13)CCCc1ccc(c(N3CCCC3)n1)CCCn1cc2c2ccccc21` ?
114 % of control

Continue with the next molecule.
May I ask what Activity at Protein Kinase Assays (% of control), SAPK3(h) has been recorded for `CN(C)c1cc2cc(n1)CCCn1cc(c3ccccc31)C1=C(C(=O)NC1=O)c1cn(c3ccccc13)CCC2` ?
115 % of control

###

Target: CDK7/cyclinH/MAT1(h) (Homo sapiens, UniProt P50613)
Sequence (P50613 whole entry): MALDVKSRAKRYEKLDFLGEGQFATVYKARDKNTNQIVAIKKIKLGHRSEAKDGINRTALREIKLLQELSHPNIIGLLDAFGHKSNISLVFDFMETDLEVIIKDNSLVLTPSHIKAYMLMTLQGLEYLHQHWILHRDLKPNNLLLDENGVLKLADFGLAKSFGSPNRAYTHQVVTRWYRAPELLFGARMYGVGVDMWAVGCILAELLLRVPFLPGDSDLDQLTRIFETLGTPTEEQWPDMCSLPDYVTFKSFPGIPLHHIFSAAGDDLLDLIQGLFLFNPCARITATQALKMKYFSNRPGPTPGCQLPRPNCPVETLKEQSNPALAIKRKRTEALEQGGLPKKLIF
Sequence (P51946 whole entry partner): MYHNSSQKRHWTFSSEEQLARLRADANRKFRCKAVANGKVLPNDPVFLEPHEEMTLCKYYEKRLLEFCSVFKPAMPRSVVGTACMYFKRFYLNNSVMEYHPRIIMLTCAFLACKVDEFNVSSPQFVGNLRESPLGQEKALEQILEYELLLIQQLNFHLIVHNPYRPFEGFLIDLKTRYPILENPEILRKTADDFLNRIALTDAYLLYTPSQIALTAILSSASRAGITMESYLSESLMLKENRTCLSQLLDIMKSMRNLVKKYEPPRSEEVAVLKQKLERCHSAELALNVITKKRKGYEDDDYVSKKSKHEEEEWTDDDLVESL
Sequence (P51948 whole entry partner): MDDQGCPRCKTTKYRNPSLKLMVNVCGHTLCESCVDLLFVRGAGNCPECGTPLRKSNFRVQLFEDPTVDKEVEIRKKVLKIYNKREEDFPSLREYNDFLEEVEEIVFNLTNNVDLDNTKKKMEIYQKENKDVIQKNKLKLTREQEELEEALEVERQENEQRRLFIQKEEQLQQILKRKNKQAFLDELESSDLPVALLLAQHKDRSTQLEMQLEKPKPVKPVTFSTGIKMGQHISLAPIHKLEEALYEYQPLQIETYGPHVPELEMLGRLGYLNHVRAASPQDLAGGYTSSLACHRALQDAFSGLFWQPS
Assay: Protein kinase selectivity panel
Type: biochemical
Conditions: 1.0 μM compound, 10 μM ATP
Hi there, I'd appreciate the recorded Activity at Protein Kinase Assays (% of control), CDK7/cyclinH/MAT1(h) for every entry that follows.

Given O=C1NC(=O)C2=C1c1cn(c3ccccc13)CCCc1ccc(c(N3CCCC3)n1)CCCn1cc2c2ccccc21 [Cpd 7] , state its recorded Activity at Protein Kinase Assays (% of control), CDK7/cyclinH/MAT1(h).
111 % of control

Item CN(C)c1nc2ccc1CCCCn1cc(c3ccccc31)C1=C(C(=O)NC1=O)c1cn(c3ccccc13)CCC2 [Cpd 1] has what recorded Activity at Protein Kinase Assays (% of control), CDK7/cyclinH/MAT1(h)?
89 % of control

Query (compound): CN(C)c1cc2cc(n1)CCCn1cc(c3ccccc31)C1=C(C(=O)NC1=O)c1cn(c3ccccc13)CCC2 [Cpd 2] ; field requested: Activity at Protein Kinase Assays (% of control), CDK7/cyclinH/MAT1(h)
108 % of control

# input for lookup
Value lookup for Activity at Protein Kinase Assays (% of control), CDK7/cyclinH/MAT1(h); key = O=C1NC(=O)C2=C1c1cn(c3ccccc13)CCCc1cc(nc(N3CCCC3)c1)CCCn1cc2c2ccccc21 [Cpd 6]
107 % of control

###

For each record, write down the corresponding Activity at Protein Kinase Assays (% of control), MAPKAP-K2(h).
Molecular target: MAPKAP-K2(h) (Homo sapiens, UniProt P49137)
Sequence (P49137 whole entry): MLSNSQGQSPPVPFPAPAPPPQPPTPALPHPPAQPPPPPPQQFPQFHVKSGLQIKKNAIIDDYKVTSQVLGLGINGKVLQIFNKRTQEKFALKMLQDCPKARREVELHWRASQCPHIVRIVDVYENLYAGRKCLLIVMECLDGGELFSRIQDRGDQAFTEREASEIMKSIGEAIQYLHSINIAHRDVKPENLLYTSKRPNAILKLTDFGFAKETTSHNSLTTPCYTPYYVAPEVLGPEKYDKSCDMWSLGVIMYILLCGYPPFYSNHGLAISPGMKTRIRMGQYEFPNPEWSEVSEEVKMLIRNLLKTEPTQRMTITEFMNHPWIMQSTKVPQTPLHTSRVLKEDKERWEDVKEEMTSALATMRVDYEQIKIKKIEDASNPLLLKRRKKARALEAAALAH
Test: Protein kinase selectivity panel
Format: biochemical
Conditions: 1.0 μM compound, 10 μM ATP

Use the examples below as a reference point.
Data request, read-out Activity at Protein Kinase Assays (% of control), MAPKAP-K2(h), for O=C1NC(=O)C2=C1c1cn(c3ccccc13)CCCc1ccc(c(N3CCCC3)n1)CCCn1cc2c2ccccc21 [Cpd 7]
95 % of control

So what's the measured Activity at Protein Kinase Assays (% of control), MAPKAP-K2(h) for this one? CN(C)c1nc2ccc1CCCCn1cc(c3ccccc31)C1=C(C(=O)NC1=O)c1cn(c3ccccc13)CCC2 [Cpd 1]
98 % of control

Which Activity at Protein Kinase Assays (% of control), MAPKAP-K2(h) is listed for O=C1NC(=O)C2=C1c1cn(c3ccccc13)CCCc1cc(nc(N3CCCC3)c1)CCCn1cc2c2ccccc21 [Cpd 6] ?
108 % of control

Now examine the next entry.
Value lookup for Activity at Protein Kinase Assays (% of control), MAPKAP-K2(h); key = CN(C)c1cc2cc(n1)CCCn1cc(c3ccccc31)C1=C(C(=O)NC1=O)c1cn(c3ccccc13)CCC2 [Cpd 2]
101 % of control

###

Would you mind telling me the reported Activity at Protein Kinase Assays (% of control), JNK2α2(h) of each entry?
Biological target: JNK2α2(h) (Homo sapiens)
Sequence (P45984 whole entry): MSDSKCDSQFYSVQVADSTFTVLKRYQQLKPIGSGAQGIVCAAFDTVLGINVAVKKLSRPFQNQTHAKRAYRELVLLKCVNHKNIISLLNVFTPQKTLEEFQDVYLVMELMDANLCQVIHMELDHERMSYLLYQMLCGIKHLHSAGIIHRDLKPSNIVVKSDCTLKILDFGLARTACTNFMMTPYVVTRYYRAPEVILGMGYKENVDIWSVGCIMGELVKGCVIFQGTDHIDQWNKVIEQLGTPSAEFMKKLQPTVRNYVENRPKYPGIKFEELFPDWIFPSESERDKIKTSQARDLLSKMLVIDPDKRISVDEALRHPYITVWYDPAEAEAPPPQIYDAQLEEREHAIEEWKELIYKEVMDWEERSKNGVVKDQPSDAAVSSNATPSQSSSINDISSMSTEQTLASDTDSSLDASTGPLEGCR
Test: Protein kinase selectivity panel
Format: biochemical
Conditions: 1.0 μM compound, 10 μM ATP
Protocol: Protein kinase selectivity assays were performed as described in the scientific literature (Davies, S. P., et al., Biochem. J. 2000, 351, 95-105). Briefly, protein kinases were assayed for their ability to phosphorylate the appropriate peptide/protein substrates in the presence of 1.0 μM compound. Assays were done using 10 μM ATP and were linear with respect to time. […]

Could you tell me which Activity at Protein Kinase Assays (% of control), JNK2α2(h) is on file for CN(C)c1cc2cc(n1)CCCn1cc(c3ccccc31)C1=C(C(=O)NC1=O)c1cn(c3ccccc13)CCC2 [Cpd 2] ?
106 % of control

For every item in the list below, what is its measured Activity at Protein Kinase Assays (% of control), JNK2α2(h)?
1. O=C1NC(=O)C2=C1c1cn(c3ccccc13)CCCc1cc(nc(N3CCCC3)c1)CCCn1cc2c2ccccc21 [Cpd 6]
2. O=C1NC(=O)C2=C1c1cn(c3ccccc13)CCCc1ccc(c(N3CCCC3)n1)CCCn1cc2c2ccccc21 [Cpd 7]

114 % of control
110 % of control

Fill in the blank: the reported Activity at Protein Kinase Assays (% of control), JNK2α2(h) of CN(C)c1nc2ccc1CCCCn1cc(c3ccccc31)C1=C(C(=O)NC1=O)c1cn(c3ccccc13)CCC2 [Cpd 1] is ____.
96 % of control

###

Please respond with reported Activity at Protein Kinase Assays (% of control), Blk(m) for every item in the list.
Target: Blk(m) (Mus musculus)
Sequence (P16277 whole entry): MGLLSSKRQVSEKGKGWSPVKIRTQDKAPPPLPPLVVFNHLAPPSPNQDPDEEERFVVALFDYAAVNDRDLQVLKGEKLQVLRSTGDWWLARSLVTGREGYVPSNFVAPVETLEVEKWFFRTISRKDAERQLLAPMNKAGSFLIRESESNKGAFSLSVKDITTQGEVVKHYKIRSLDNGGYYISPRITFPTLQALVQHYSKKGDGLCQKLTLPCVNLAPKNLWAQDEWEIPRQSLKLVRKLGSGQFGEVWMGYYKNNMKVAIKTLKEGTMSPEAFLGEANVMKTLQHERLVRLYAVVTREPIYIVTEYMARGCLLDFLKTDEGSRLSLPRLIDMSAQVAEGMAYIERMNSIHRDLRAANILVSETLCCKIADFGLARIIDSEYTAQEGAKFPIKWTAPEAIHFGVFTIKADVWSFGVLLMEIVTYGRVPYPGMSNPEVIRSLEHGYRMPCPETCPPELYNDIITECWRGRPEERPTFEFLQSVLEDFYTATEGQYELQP
Assay: Protein kinase selectivity panel
Format: biochemical
Details: 1.0 μM compound, 10 μM ATP

Answered cases to consult:
Requested read-out: Activity at Protein Kinase Assays (% of control), Blk(m). Entry: `CN(C)c1nc2ccc1CCCCn1cc(c3ccccc31)C1=C(C(=O)NC1=O)c1cn(c3ccccc13)CCC2`
109 % of control

Reported Activity at Protein Kinase Assays (% of control), Blk(m) for `O=C1NC(=O)C2=C1c1cn(c3ccccc13)CCCc1ccc(c(N3CCCC3)n1)CCCn1cc2c2ccccc21` : what is it?
91 % of control

Could you tell me which Activity at Protein Kinase Assays (% of control), Blk(m) is on file for `O=C1NC(=O)C2=C1c1cn(c3ccccc13)CCCc1cc(nc(N3CCCC3)c1)CCCn1cc2c2ccccc21` ?
74 % of control

Consider now this further molecule.
Tell me the measured Activity at Protein Kinase Assays (% of control), Blk(m) of `CN(C)c1cc2cc(n1)CCCn1cc(c3ccccc31)C1=C(C(=O)NC1=O)c1cn(c3ccccc13)CCC2` , please.
70 % of control

Taken from patent US7759331B2.
